method description: chemical genetic growth profiling, strain panel (AID 1159580);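 further: tested at 20 µM; growth read once vehicle control cultures reached saturation at 30 °C; 1 = growth at the plate median or of vehicle wells; lower values mean less growth of the strain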
test conditions: S. cerevisiae deletion strains, growth OD, locus YHR142W, strain chs7, hits give low values
Screen size: about 5,500 compounds; about 2,000 (36%) were called active. Roughly 18% stayed inconclusive and do not appear here. The list shows a part of the results.
Label 1 when normalized growth is strictly below 1; at or above that, label 0.

Some entries whose results are on file:
CCCCCCCCCCCCCCC(C(=O)O)C(O)(CC(=O)OC)C(=O)O (configuration not stated) = 1
C#C[C@]1(O)CCC2C3CCC4=C(CCC(=O)C4)C3CC[C@@]21C (some centres not stated) = 1
O=C(Nc1ccc(C(=O)O)c(O)c1)c1ccccc1 = 1

Please look at the following compound next.
Incoming: Record `O=c1oc2cc(O)ccc2s1` : is its normalized growth strictly below 1?
Outgoing: 0

* * *

method description: chemical genetic growth profiling, strain panel (AID 1159580)
test conditions: S. cerevisiae deletion strains, growth OD, locus YHR030C, strain SLT2
The campaign covered roughly 5,500 compounds. About 2,000 (36%) were called active. Inconclusive results (about 18%) are left out. Rule as the data show it: active = normalized growth mostly below about 0.91 (no sharp cut-off); inconclusive = no clear call, values can overlap the other calls; inactive = mostly above about 0.92. Some of the results follow.
Would you mind answering with one of these outcomes? t for active, f for inactive

Cc1cc(-n2c(=O)[nH]c(=O)n(C)c2=O)ccc1Oc1ccc(SC(F)(F)F)cc1 = t
Cc1nc(-c2ccccn2)nc(N(C)Cc2ccccc2)c1Cl = f
COc1cccc2c1C(=O)c1c(O)c3c(c(O)c1C2=O)C[C@@](O)(C(C)=O)C[C@@H]3O[C@H]1C[C@H](N)[C@H](O)[C@H](C)O1 = f
Cc1cc(=O)n2[nH]cc(C#N)c2n1 = f
O=C(NCCNc1ncc(C(F)(F)F)cc1Cl)C(F)(F)Sc1ccccc1 = f

Incoming: Can you look up the reported call for COC(=O)C1Cc2c([nH]c3ccccc23)C2(CCN(C)CC2)N1 (configuration not stated) for me?
Outgoing: f

Incoming: Could you please tell me the result logged for CCCCCCCCCCCCCCCCC(C(=O)O)C(O)(CC(=O)O)C(=O)O (configuration not stated) in this assay?
Outgoing: t

Incoming: So what was the verdict on `CCCCC[C@H](CC(=O)O)C(=O)O` in this test?
Outgoing: f

Incoming: Recorded call for Fc1ccc(C(c2ccccc2)(c2ccccc2F)n2ccnc2)cc1 (configuration not stated) ?
Outgoing: t

Incoming: What call does the record list for O=C(O)/C=C1\CCCc2ccccc2C1O (configuration not stated) ?
Outgoing: f

Incoming: Check the results log: what was the call for CCCC(CC(=O)O)(C(=O)O)c1ccccc1 (configuration not stated) ?
Outgoing: f

Incoming: Dear colleague, could you share the recorded outcome for `FC(F)(F)c1ccccc1-n1ccnc1` when you have a moment?
Outgoing: f

* * *

Item-by-item account of normalized growth
method description: chemical genetic growth profiling, strain panel (AID 1159580)
test conditions: S. cerevisiae deletion strains, growth OD, locus YER155C, strain BEM2, hits give low values
The campaign covered roughly 5,500 compounds. About 2,000 (36%) were called active. Inconclusive results (about 18%) are left out. The list shows a part of the results.
// no unit string in output, number only

# annotated cases, reported normalized growth shown
CC(=O)O[C@@H]1CC[C@@]2(C)C(CC[C@]3(C)C2CC=C2C4CC(C)(C)CC[C@]4(C(=O)O)CC[C@]23C)C1(C)C (stereo not given in full) = 0.985
CC1(C)CC[C@]2(C(=O)O)CC[C@]3(C)C(=CCC4[C@@]5(C)CC[C@H](O)[C@@](C)(CO)C5CC[C@]43C)C2C1 (stereo not given in full) = 1.01
CC(=O)O[C@H]1CC[C@@]2(C)C(CC[C@]3(C)C2CC=C2C4CC(C)(C)CC[C@]4(C)CC[C@]23C)C1(C)C (stereo not given in full) = 1.01
CC(=O)OC1CC[C@@]2(C)C(CC[C@]3(C)C2CCC2C4CC(C)(C)CCC4(C(=O)O)CC[C@]23C)C1(C)C (stereo not given in full) = 0.985

Continue with the next compound.
Incoming: Fill blank: measured normalized growth of the compound `CC(C)(Sc1cc(C(C)(C)C)c(O)c(C(C)(C)C)c1)Sc1cc(C(C)(C)C)c(O)c(C(C)(C)C)c1` is ____.
Outgoing: 1.01

* * *

method description: chemical genetic growth profiling, strain panel (AID 1159580);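 further: tested at 20 µM; growth read once vehicle control cultures reached saturation at 30 °C; 1 = growth at the plate median or of vehicle wells; lower values mean less growth of the strain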
test conditions: S. cerevisiae deletion strains, growth OD, locus YGL240W, strain doc1, hits give low values
Among all 5,500 compounds or so, about 2,000 (36%) were called active. Another 18% or so got no clear call; they are omitted. The list shows a part of the results.
Please use label 1 for normalized growth under 1 and label 0 for everything else, ties included.

These recorded examples may help you get a feel for the data.
CC(C)(Sc1cc(C(C)(C)C)c(O)c(C(C)(C)C)c1)Sc1cc(C(C)(C)C)c(O)c(C(C)(C)C)c1 = label 1
CCOc1ccc2nc3cc(N)ccc3c(N)c2c1 = label 0
C[C@@H]1CC[C@H]2[C@@H](C)C(=O)O[C@@H]3O[C@@]4(C)CC[C@@H]1[C@]32OO4 = label 1
CCOP(=S)(OCC)Oc1nc(Cl)c(Cl)cc1Cl = label 1

// next entry
Incoming: API: query returns whether the molecule falls strictly under 1 in normalized growth. Query: `Nc1c2c(nc3ccccc13)CCCC2`
Outgoing: label 1

* * *

method description: chemical genetic growth profiling, strain panel (AID 1159580);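 further: tested at 20 µM; growth read once vehicle control cultures reached saturation at 30 °C; 1 = growth at the plate median or of vehicle wells; lower values mean less growth of the strain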
test conditions: S. cerevisiae deletion strains, growth OD, locus YGL086W, strain mad1
Among all 5,500 compounds or so, about 2,000 (36%) were called active. Inconclusive results (about 18%) are left out. Cut-off read from the data, not from the text of the source: active = normalized growth mostly below about 0.91 (no sharp cut-off); inconclusive = no clear call, values can overlap the other calls; inactive = mostly above about 0.92. Some of the results follow. Where a SMILES comes first, the peptide text is derived from it. The star is where a group is joined. For = O=C*
# valid calls are T for active, F for inactive; nothing else

The examples below pair each entry with its known result.
CC(C)=CCCC1(C)C=Cc2c(O)c3c(c(CC=C(C)C)c2O1)OC12C(=CC4CC1C(C)(C)OC2(C/C=C(/C)C(=O)O)C4=O)C3=O (stereo unspecified) = T
Cc1ccc(S(=O)(=O)NC(=O)NN2CC3CCCC3C2)cc1 (stereo unspecified) = F
CCCCCCCCCCCC[C@H](C(=O)O)[C@@H](C)C(=O)O = F
CC1(C)CC[C@]2(C(=O)O)CC[C@]3(C)C(=CCC4[C@@]5(C)CC[C@@H](O)C(C)(C)C5CC[C@]43C)C2C1 (stereo partly specified) = F
C#C[C@]1(O)CCC2C3CCC4=C(CCC(=O)C4)C3CC[C@@]21C (stereo partly specified) = F

Incoming: I'd appreciate the recorded outcome for CSCCC(NC=O)C(=O)NC(Cc1ccccc1)C(=O)O (stereo not drawn) (For-Met-Phe-OH; configuration not given here) from this test.
Outgoing: F

Incoming: I would be grateful if you could indicate the recorded call for CC1C(=O)OC2C1CCC1(C)C=CC(=O)C3(C)OC213 (stereo unspecified) .
Outgoing: F

Incoming: Assay result, entry `Cc1cc(O)cc(C)c1Cl` — outcome?
Outgoing: F

Incoming: Per the records of this test, what outcome belongs to `C[C@@H]1CC[C@H]2[C@@H](C)C(=O)O[C@@H]3O[C@@]4(C)CC[C@@H]1[C@]32OO4` ?
Outgoing: T

Incoming: Outcome? `Cc1cc(O)ccc1Cl`
Outgoing: F

Incoming: Field: outcome | Entry: `Cc1cc(O)cc(O)c1C(=O)O`
Outgoing: F

Incoming: Status in this test for C[C@@H]1CC[C@H]2[C@@H](C)C(O)O[C@@H]3O[C@@]4(C)CC[C@@H]1[C@]32OO4 (stereo partly specified) ?
Outgoing: T

Incoming: // outcome(item) with item = CCOC(=O)OC(C)OC(=O)C1N2C(=O)C(NC(=O)[C@H](N)c3ccccc3)C2SC1(C)C (stereo partly specified)
Outgoing: F

Incoming: For C/C=C(/C)C(=O)OC1CCC2(C)C3CCC4C5(O)CC(O)C6(O)C(CN7CC(C)CCC7C6(C)O)C5(O)CC42OC13O (stereo unspecified) , which call appears in the assay record?
Outgoing: F

Incoming: Kindly provide the recorded test outcome for the following compound: `O=C1c2c(O)cccc2Cc2cccc(O)c21`
Outgoing: F

Incoming: Called result for CC(C)CC(N(C)C)C1(c2ccc(Cl)cc2)CCC1 (stereo unspecified)
Outgoing: F

Incoming: What classification did `CNC(=O)O/N=C\C(C)(C)SC` end up with in this test?
Outgoing: F

Incoming: What outcome does the record of this test show for `NC(N)=N/N=C/c1c(Cl)cccc1Cl` ?
Outgoing: F

* * *

method description: chemical genetic growth profiling, strain panel (AID 1159580);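 further: tested at 20 µM; growth read once vehicle control cultures reached saturation at 30 °C; 1 = growth at the plate median or of vehicle wells; lower values mean less growth of the strain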
test conditions: S. cerevisiae deletion strains, growth OD, locus YKL085W, strain MDH1 (second series), hits give low values
Screen size: about 5,500 compounds; about 2,000 (36%) were called active. Not shown: some 18% with an inconclusive outcome. Some of the results follow.
reported property: normalized growth
No unit in the answer, please; the number alone is enough.

Below are worked cases with known answers.
COc1cccc(OC)c1OCCNCC1COc2ccccc2O1 (stereo unspecified) = 1.03
Cc1cc(O)c2c(c1)Cc1cccc(O)c1C2=O = 1.03
NC(Cc1c[nH]c2ccccc12)C(=O)O (stereo unspecified) = 1.02
CO[C@@]12[C@@H]3NC3CN1C1=C(C(=O)C(N)=C(C)C1=O)[C@@H]2COC(N)=O (stereo partly specified) = 0.983
C[C@@H]1C(=O)O[C@H]2[C@H]1CC[C@@]1(C)C=CC(=O)[C@@]3(C)O[C@@]213 = 1.01

Proceed to the following item.
Incoming: For the compound `O=C1c2c(O)cccc2Cc2cccc(O)c21` , what normalized growth is on record?
Outgoing: 0.994

Numbers sourced from PubChem BioAssay AID1159580.
